Biological target: cloned human κ-opioid receptor (Homo sapiens)
Construct: expressed in transfected cells
Sequence (P41145 whole entry): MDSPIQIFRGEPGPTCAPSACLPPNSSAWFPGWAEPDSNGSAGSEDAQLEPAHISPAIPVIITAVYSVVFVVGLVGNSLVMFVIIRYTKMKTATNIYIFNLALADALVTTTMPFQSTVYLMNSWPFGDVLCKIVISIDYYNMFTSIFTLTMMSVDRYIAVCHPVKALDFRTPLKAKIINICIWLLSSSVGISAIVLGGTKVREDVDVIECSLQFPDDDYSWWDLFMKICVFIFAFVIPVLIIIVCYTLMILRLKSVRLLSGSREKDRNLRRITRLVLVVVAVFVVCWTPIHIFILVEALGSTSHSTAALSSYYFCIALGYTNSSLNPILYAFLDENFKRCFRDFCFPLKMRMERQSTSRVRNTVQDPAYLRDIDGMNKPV
Test: Inhibition of U69,593-stimulated [35S]GTPγS binding
Format: biochemical
Settings: antagonism of U69,593-stimulated [35S]GTPγS binding, cloned human κ receptor
RECORDED_ENDPOINT: κ, U69,593 Ke (nM)
Give just the numeric value; nM need not be written.

[[record]]
compound = "COc1cccc(Oc2ccc(C(=O)N[C@H](CN3CCN(c4cccc(O)c4)[C@@H](C)C3)C(C)C)cc2)c1.Cl.Cl"
quantitative_readout = 0.63

[[record]]
compound = "CC(C)[C@@H](CN1CCN(c2cccc(O)c2)[C@@H](C)C1)NC(=O)c1ccc(Oc2ccccc2O)c(Cl)c1.Cl.Cl [Compound 19n]"
quantitative_readout = 5.0

[[record]]
compound = "Cc1cc(C(=O)N[C@H](CN2CCN(c3cccc(O)c3)[C@@H](C)C2)C(C)C)ccc1Oc1ccccc1.Cl.Cl"
quantitative_readout = 0.63


Moving on to another compound below.
I have this compound here, "CC(C)[C@@H](CN1CCN(c2cccc(O)c2)[C@@H](C)C1)NC(=O)c1ccc(Oc2cccc(O)c2)cc1.Cl.Cl" , and I need its recorded κ, U69,593 Ke.
1.85

* * *

Molecular target: cloned human δ-opioid receptor (Homo sapiens, UniProt P41143)
Construct: expressed in transfected cells
Sequence (P41143 whole entry): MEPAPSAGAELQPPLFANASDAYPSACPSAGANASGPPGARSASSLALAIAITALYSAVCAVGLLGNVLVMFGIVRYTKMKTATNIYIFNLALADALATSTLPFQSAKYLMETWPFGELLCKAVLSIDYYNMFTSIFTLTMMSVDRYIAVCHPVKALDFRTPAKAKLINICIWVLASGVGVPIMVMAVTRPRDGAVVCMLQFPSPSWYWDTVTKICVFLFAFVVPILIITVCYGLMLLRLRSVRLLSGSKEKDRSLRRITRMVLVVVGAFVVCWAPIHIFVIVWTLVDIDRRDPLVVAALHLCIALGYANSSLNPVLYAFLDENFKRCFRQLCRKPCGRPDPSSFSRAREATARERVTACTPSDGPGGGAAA
Assay: Inhibition of DPDPE-stimulated [35S]GTPγS binding
Assay type: biochemical
Details: antagonism of DPDPE-stimulated [35S]GTPγS binding, cloned human δ receptor
RECORDED_ENDPOINT: δ, DPDPE Ke (nM)
Provide only the numeric value, understood in nM.

Worked examples, 3 compounds total:
[[record]]
compound = "Cc1cc(C(=O)N[C@H](CN2CCN(c3cccc(O)c3)[C@@H](C)C2)C(C)C)ccc1Oc1ccccc1.Cl.Cl"
target_or_system = "cloned human δ-opioid receptor (Homo sapiens, UniProt P41143)"
recorded_endpoint = "δ, DPDPE Ke"
quantitative_readout = 435

[[record]]
compound = "COc1ccccc1Oc1ccc(C(=O)N[C@H](CN2CCN(c3cccc(O)c3)[C@@H](C)C2)C(C)C)cc1.Cl.Cl"
target_or_system = "cloned human δ-opioid receptor (Homo sapiens, UniProt P41143)"
recorded_endpoint = "δ, DPDPE Ke"
quantitative_readout = 869

[[record]]
compound = "CC(C)[C@@H](CN1CCN(c2cccc(O)c2)[C@@H](C)C1)NC(=O)c1ccc(Oc2ccc(O)cc2)cc1.Cl.Cl"
target_or_system = "cloned human δ-opioid receptor (Homo sapiens, UniProt P41143)"
recorded_endpoint = "δ, DPDPE Ke"
quantitative_readout = 1696


Can you share its δ, DPDPE Ke? I mean this compound: CC(C)[C@@H](CN1CCN(c2cccc(O)c2)[C@@H](C)C1)NC(=O)c1ccc(Oc2ccccc2O)c(Cl)c1.Cl.Cl [Compound 19n]
210

I have this compound here, "COc1cccc(Oc2ccc(C(=O)N[C@H](CN3CCN(c4cccc(O)c4)[C@@H](C)C3)C(C)C)cc2)c1.Cl.Cl" , and I need its recorded δ, DPDPE Ke.
1502

# lookup: δ, DPDPE Ke of "Cc1ccc(Oc2ccc(C(=O)N[C@H](CN3CCN(c4cccc(O)c4)[C@@H](C)C3)C(C)C)cc2)cc1.Cl.Cl"
188

Item under review: "CC(C)[C@@H](CN1CCN(c2cccc(O)c2)[C@@H](C)C1)NC(=O)c1ccc(Oc2ccccc2O)cc1.Cl.Cl" . Reported δ, DPDPE Ke?
960

Which δ, DPDPE Ke reading was recorded for the compound "CC(C)[C@@H](CN1CCN(c2cccc(O)c2)[C@@H](C)C1)NC(=O)c1ccc(Oc2ccccc2)cc1.Cl.Cl" ?
570

Which δ, DPDPE Ke value belongs to "COc1ccc(Oc2ccc(C(=O)N[C@H](CN3CCN(c4cccc(O)c4)[C@@H](C)C3)C(C)C)cc2)cc1.Cl.Cl" ?
1383

Endpoint output: δ, DPDPE Ke of "Cc1cccc(Oc2ccc(C(=O)N[C@H](CN3CCN(c4cccc(O)c4)[C@@H](C)C3)C(C)C)cc2)c1.Cl.Cl" . Value?
62

Any idea what its δ, DPDPE Ke is? The compound is "CC(C)[C@@H](CN1CCN(c2cccc(O)c2)[C@@H](C)C1)NC(=O)c1ccc(Oc2cccc(F)c2)cc1.Cl.Cl"
174

Would you kindly share the measured δ, DPDPE Ke for "CC(C)[C@@H](CN1CCN(c2cccc(O)c2)[C@@H](C)C1)NC(=O)c1ccc(Oc2cccc(O)c2)cc1.Cl.Cl" ?
625

Cited source for all entries: patent US9512105B2
